- procedure-summary: Selectivity index, ratio of IC50 for CHO cells to IC50 for chloroquine-sensitive Plasmodium falciparum D10
- Type: toxicity, cell-based
- condition-parameters: hamster; read-out: Ratio IC50
# selectivity ratio listing for each entry below
endpoint-label: selectivity ratio

compound: O=C(/C=C/c1ccc(O)cc1)c1ccc(O)cc1O [ISOLIQUIRITIGENIN]
readout-number: 1
//
compound: O=c1cc(-c2ccc(O)c(O)c2)oc2cc(O)ccc12
readout-number: 3
//
compound: COc1c(O)cc([C@]2(O)COc3cc(O)cc(O)c3C2=O)c(OC)c1CC=C(C)C [SOPHONOROL D]
readout-number: 2
//
compound: COc1ccc([C@]2(O)COc3c(CC=C(C)C)c(O)cc(O)c3C2=O)c(OC)c1CC=C(C)C [SOPHONOROL E]
readout-number: 13
//
compound: COc1c(C2(O)COc3cc(O)cc(O)c3C2=O)ccc2c1C=CC(C)(C)O2 (stereo unspecified) [SOPHORONOL]
readout-number: 2
//
compound: COc1cc(O)c2c(c1CC=C(C)C)OC[C@@](O)(c1ccc(O)c(CC=C(C)C)c1OC)C2=O [SOPHONOROL F]
readout-number: 3
